Values from paper PMC7826789

- Test system: PRKCE
- reportedConditions: Compound Concentration (nM):1000;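 further: KINOMEscan scanMAX binding as percent activity remaining versus control; lower means stronger binding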
Listed compounds paired with reported Percent Control
Please respond with the number in % and leave the unit unwritten.

{"columns": ["compound", "Percent Control (%)"],
 "data": [
  ["COc1cc(/C=N/Nc2ncnc3[nH]ncc23)ccc1O [GW578748X]", 100],
  ["COC(=O)Nc1nc2ccc(Oc3ccc(NC(=O)Nc4cc(C(F)(F)F)ccc4F)cc3)cc2s1.Cl [GW693917A]", 100],
  ["COc1ccc(COc2ccc(Cc3cnc(N)nc3N)cc2OC)cc1 [GW632580X]", 100]
]}

Return Percent Control measured with PRKCE given this compound: CC1=C(C(=O)Nc2ccc3[nH]ncc3c2)C(c2ccc3ccccc3c2)CC(=O)N1 (stereo not drawn) [GSK270822A]
100

Return Percent Control measured with PRKCE given this compound: COc1ccc2c(-c3ccnc(Nc4cccc(OC(F)(F)F)c4)n3)cnn2n1 [GW810372X]
100

Return Percent Control measured with PRKCE given this compound: Nc1ncnc2occ(-c3ccc(NC(=O)Nc4cc(C(F)(F)F)ccc4F)cc3)c12 [GW770249X]
94

Return Percent Control measured with PRKCE given this compound: NS(=O)(=O)c1ccc(Nc2ncc(-c3ccccc3)o2)cc1 [GW572399X]
100

Return Percent Control measured with PRKCE given this compound: Cl.O=C(O[C@H]1CN[C@H](C#Cc2cc3ncnc(Nc4ccc5c(cnn5Cc5ccccc5)c4)c3s2)C1)N1CCOCC1 [GSK200398A]
88

Return Percent Control measured with PRKCE given this compound: C/C(Nc1ccc(S(N)(=O)=O)cc1)=C1/C(=O)Nc2ccccc21 [GW335962X]
96

----------
Listed compounds paired with reported Percent Control
- Tested on: CDC2L5
- Construct: gene CDK13
- reportedConditions: Compound Concentration (nM):1000
Please respond with the number in % and leave the unit unwritten.

{"columns": ["compound", "unitName", "Percent Control"],
 "data": [
  ["NS(=O)(=O)c1ccc(N/N=C2\\C(=O)Nc3ccc(C(=O)NCCc4c[nH]cn4)cc32)cc1 [GW300660X]", "%", 79]
]}

Return Percent Control measured with CDC2L5 given this compound: CN(C)CCNC(=O)Nc1ccc(N(C)c2ccnc(Nc3ccc(CS(C)(=O)=O)cc3)n2)cc1.Cl [GW830900A]
100

Return Percent Control measured with CDC2L5 given this compound: CCS(=O)(=O)c1ccc(OC)c(Nc2ncc(-c3cccc(OC)c3)o2)c1 [GW580509X]
100

Return Percent Control measured with CDC2L5 given this compound: Nc1ncnc2occ(-c3ccc(NC(=O)Nc4cc(C(F)(F)F)ccc4F)cc3)c12 [GW770249X]
1.4

Return Percent Control measured with CDC2L5 given this compound: CN1CCN(C(=O)c2ccc(NC(=O)Nc3ccc(N(C)c4ccnc(Nc5ccc(CS(C)(=O)=O)cc5)n4)cc3)cc2)CC1.Cl [GW830263A]
13

Return Percent Control measured with CDC2L5 given this compound: COc1ccc2[nH]c3c4[nH]c5ccc(OC)cc5c4c4c(c3c2c1)C(=O)NC4=O [GW296115X]
100

Return Percent Control measured with CDC2L5 given this compound: CC1=C(C(=O)Nc2ccc3[nH]ncc3c2)C(c2ccc3ccccc3c2)CC(=O)N1 (centres unmarked) [GSK270822A]
85

Return Percent Control measured with CDC2L5 given this compound: C/C(Nc1ccc(S(N)(=O)=O)cc1)=C1/C(=O)Nc2ccccc21 [GW335962X]
65

Return Percent Control measured with CDC2L5 given this compound: NS(=O)(=O)c1ccc(N/N=C2\C(=O)Nc3ccc(-c4cnco4)cc32)cc1
56

Return Percent Control measured with CDC2L5 given this compound: COc1cc(/C=N/Nc2ncnc3[nH]ncc23)ccc1O [GW578748X]
100

----------
- Test system: CAMK2D
- reportedConditions: Compound Concentration (nM):1000
readoutName: Percent Control (%)
Please respond with the number in % and leave the unit unwritten.

Please review the following examples before continuing.
{"columns": ["compound", "targetUnderTest", "Percent Control (%)"],
 "data": [
  ["COC(=O)Nc1nc2ccc(Oc3ccc(NC(=O)Nc4cc(C(F)(F)F)ccc4F)cc3)cc2s1.Cl [GW693917A]", "CAMK2D", 98],
  ["NS(=O)(=O)c1ccc(N/N=C2\\C(=O)Nc3ccc(C(=O)NCc4ccncc4)cc32)cc1 [GW300657X]", "CAMK2D", 81],
  ["COc1cc2ncnc(Nc3ccc4c(cnn4Cc4ccccc4)c3)c2cc1OC.Cl [GW282449A]", "CAMK2D", 100],
  ["CCc1ccc(Oc2nccc(-c3c(-c4ccc(F)cc4)ncn3C3CCNCC3)n2)cc1", "CAMK2D", 100],
  ["CCS(=O)(=O)c1ccc(OC)c(Nc2ncc(-c3cccc(OC)c3)o2)c1 [GW580509X]", "CAMK2D", 97],
  ["COc1cccc(-c2c[nH]c3c(N/N=C/c4ccncc4)ncnc23)c1 [GW814408X]", "CAMK2D", 84],
  ["CCn1c(-c2nonc2N)nc2c(C#CC(C)(C)O)nc(OCCNC)cc21.Cl", "CAMK2D", 100],
  ["O=C1Nc2ccc(C(=O)c3ccco3)cc2C1=Cc1cc(Cl)c(O)c(Cl)c1 [GW406108X]", "CAMK2D", 55]
]}

Recorded Percent Control for Cl.O=S1CCN(Cc2ccc(-c3ccc4ncnc(Nc5ccc(OCc6ccccc6)c(F)c5)c4c3)o2)CC1 [GW576924A] , please?
100

Recorded Percent Control for Cc1cc(O)cc(C)c1/C=C/c1cncc(C(N)=O)c1 [GW435821X] , please?
100

Recorded Percent Control for COc1ccc(COc2ccc(Cc3cnc(N)nc3N)cc2OC)cc1 [GW632580X] , please?
89

Recorded Percent Control for COc1cc(/C=N/Nc2ncnc3[nH]ncc23)ccc1O [GW578748X] , please?
96

Recorded Percent Control for COc1cc(C)c(N(C)C(=O)CN(C)C)cc1Nc1nc(Nc2cccc(F)c2C(N)=O)c2cc[nH]c2n1 , please?
82

Recorded Percent Control for CN(C)CCNC(=O)Nc1ccc(N(C)c2ccnc(Nc3ccc(CS(C)(=O)=O)cc3)n2)cc1.Cl [GW830900A] , please?
93

Recorded Percent Control for Cl.O=C(Nc1ccc(Oc2ccc3[nH]c(NC(=O)c4ccco4)nc3c2)cc1)Nc1cc(C(F)(F)F)ccc1F [GW683134A] , please?
100

Recorded Percent Control for NS(=O)(=O)c1ccc(N/N=C2\C(=O)Nc3ccc(Cl)cc32)cc1 [GW280670X] , please?
100

Recorded Percent Control for CC1=C(C(=O)Nc2ccc3[nH]ncc3c2)C(c2ccc3ccccc3c2)CC(=O)N1 (centres unmarked) [GSK270822A] , please?
79

Recorded Percent Control for Cl.c1ccc(Cc2nc3ccc(Nc4ncnc5ccccc45)cc3[nH]2)cc1 [GR269666A] , please?
100

Recorded Percent Control for COc1ccc2[nH]c3c4[nH]c5ccc(OC)cc5c4c4c(c3c2c1)C(=O)NC4=O [GW296115X] , please?
64

Recorded Percent Control for COc1cccc(-n2ncc3c(N/N=C/c4ccncc4)ncnc32)c1 [GW784752X] , please?
100

Recorded Percent Control for NS(=O)(=O)c1ccc(N/N=C2\C(=O)Nc3ccc(C(=O)NCCc4c[nH]cn4)cc32)cc1 [GW300660X] , please?
100

Recorded Percent Control for Cl.O=C(Nc1ccc(Oc2ccc3[nH]c(NC(=O)c4ccccc4)nc3c2)cc1)Nc1cc(C(F)(F)F)ccc1F [GW709042A] , please?
100

Recorded Percent Control for COc1ccc2c(-c3ccnc(Nc4cccc(OC(F)(F)F)c4)n3)cnn2n1 [GW810372X] , please?
100

----------
- Test system: MTOR
- reportedConditions: Compound Concentration (nM):1000
Listed molecules paired with reported Percent Control
Please respond with the number in % and leave the unit unwritten.

Please review the following examples before continuing.
{"columns": ["molecule", "targetUnderTest", "Percent Control (%)"],
 "data": [
  ["C[C@@H](Oc1cc(-n2cnc3ccc(OC4CCN(C)CC4)cc32)sc1C(N)=O)c1ccccc1Cl [GSK579289A]", "MTOR", 95],
  ["CN1CCN(C(=O)c2ccc(NC(=O)Nc3ccc(N(C)c4ccnc(Nc5ccc(CS(C)(=O)=O)cc5)n4)cc3)cc2)CC1.Cl [GW830263A]", "MTOR", 100],
  ["COC(=O)Nc1nc2ccc(Oc3ccc(NC(=O)Nc4cc(C(F)(F)F)ccc4F)cc3)cc2s1.Cl [GW693917A]", "MTOR", 100]
]}

--- query ---
Recorded Percent Control for Cl.O=C(Nc1ccc(Oc2ccc3[nH]c(NC(=O)c4ccco4)nc3c2)cc1)Nc1cc(C(F)(F)F)ccc1F [GW683134A] , please?
100

----------
Listed compounds paired with reported Percent Control
- System: RIOK1
- reportedConditions: Compound Concentration (nM):1000
Please respond with the number in % and leave the unit unwritten.

Please review the following examples before continuing.
{"columns": ["compound", "Percent Control [%]"],
 "data": [
  ["CN1CCN(C(=O)c2ccc(NC(=O)Nc3ccc(N(C)c4ccnc(Nc5ccc(CS(C)(=O)=O)cc5)n4)cc3)cc2)CC1.Cl [GW830263A]", 2.2],
  ["COc1cc(C)c(N(C)C(=O)CN(C)C)cc1Nc1nc(Nc2cccc(F)c2C(N)=O)c2cc[nH]c2n1", 73],
  ["Cl.O=C(O[C@H]1CN[C@H](C#Cc2cc3ncnc(Nc4ccc5c(cnn5Cc5ccccc5)c4)c3s2)C1)N1CCOCC1 [GSK200398A]", 100],
  ["Cc1cc(O)cc(C)c1/C=C/c1cncc(C(N)=O)c1 [GW435821X]", 99],
  ["CCn1c(-c2nonc2N)nc2c(C#CC(C)(C)O)nc(OCCNC)cc21.Cl", 100]
]}

Recorded Percent Control for COC(=O)Nc1nc2ccc(Oc3ccc(NC(=O)Nc4cc(C(F)(F)F)ccc4F)cc3)cc2s1.Cl [GW693917A] , please?
62

Recorded Percent Control for COc1ccc2[nH]c3c4[nH]c5ccc(OC)cc5c4c4c(c3c2c1)C(=O)NC4=O [GW296115X] , please?
58

Recorded Percent Control for Cl.c1ccc(Cc2nc3ccc(Nc4ncnc5ccccc45)cc3[nH]2)cc1 [GR269666A] , please?
100
